Biological target: human androgen receptor (hAR) (Homo sapiens, UniProt P10275)
Construct: made in house; host or cells: baculovirus/Sf9 insect cells (crude extract)
Sequence (P10275 whole entry): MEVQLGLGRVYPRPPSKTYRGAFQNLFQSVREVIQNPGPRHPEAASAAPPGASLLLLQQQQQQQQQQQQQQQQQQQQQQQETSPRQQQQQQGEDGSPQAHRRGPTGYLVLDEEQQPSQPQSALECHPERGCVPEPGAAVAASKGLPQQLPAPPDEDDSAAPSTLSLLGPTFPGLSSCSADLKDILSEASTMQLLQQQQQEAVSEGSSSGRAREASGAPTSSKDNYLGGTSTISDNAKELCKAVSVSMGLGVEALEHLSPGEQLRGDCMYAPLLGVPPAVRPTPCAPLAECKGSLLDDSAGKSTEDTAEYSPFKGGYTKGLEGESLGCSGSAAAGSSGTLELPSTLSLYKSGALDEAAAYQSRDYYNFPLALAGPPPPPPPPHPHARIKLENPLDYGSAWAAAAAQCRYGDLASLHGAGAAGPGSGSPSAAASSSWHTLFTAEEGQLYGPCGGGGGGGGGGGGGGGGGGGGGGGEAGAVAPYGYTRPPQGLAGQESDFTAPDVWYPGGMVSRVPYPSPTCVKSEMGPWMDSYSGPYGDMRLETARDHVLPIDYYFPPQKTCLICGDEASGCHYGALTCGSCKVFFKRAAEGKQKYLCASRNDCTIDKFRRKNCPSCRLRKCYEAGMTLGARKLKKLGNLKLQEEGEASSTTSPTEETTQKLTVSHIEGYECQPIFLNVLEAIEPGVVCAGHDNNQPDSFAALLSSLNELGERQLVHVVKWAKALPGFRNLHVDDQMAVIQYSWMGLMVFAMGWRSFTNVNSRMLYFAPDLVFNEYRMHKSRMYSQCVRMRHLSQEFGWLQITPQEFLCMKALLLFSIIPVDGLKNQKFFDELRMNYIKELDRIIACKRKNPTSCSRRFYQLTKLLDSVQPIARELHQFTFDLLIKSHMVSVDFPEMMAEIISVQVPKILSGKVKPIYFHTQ
Assay: Competitive binding analysis on baculovirus/Sf9 generated hAR extracts with 3H-DHT tracer
Conditions: hAR extract, 1 nM 3H-DHT, one hour at 4° C; mean of multiple tests; read-out: AR Binding IC50
Some compounds, each annotated with its measured IC50.
# unit: µM | format: bare number

Solved entries (count: 5):
{"Compound": "CCCC(Oc1ccc(C#N)c(Cl)c1)C(=O)NCCc1c[nH]c2ccccc12 (centres unmarked) [Example 101]", "Quantity unit": "µM", "Numeric value": 0.053}
{"Compound": "Cc1ccc(CCNC(=O)C(CC(C)C)Oc2ccc(C#N)c(C(F)(F)F)c2)cc1 (centres unmarked) [Example 47]", "Quantity unit": "µM", "Numeric value": 0.144}
{"Compound": "COc1cccc(CNC(=O)C(CC(C)C)Oc2ccc(C#N)c(C(F)(F)F)c2)c1 (centres unmarked) [Example 71]", "Quantity unit": "µM", "Numeric value": 0.288}
{"Compound": "CCCC(Oc1ccc(C#N)c(C(F)(F)F)c1)C(=O)NCc1ccc(C)cc1C (centres unmarked) [Example 45]", "Quantity unit": "µM", "Numeric value": 0.058}
{"Compound": "CCCC(Oc1ccc(C#N)c(C(F)(F)F)c1)C(=O)NCC(C)Oc1ccccc1 (centres unmarked) [Example 55]", "Quantity unit": "µM", "Numeric value": 0.182}

Which IC50 value is on record for CCCC(Oc1ccc(C#N)c(C(F)(F)F)c1)C(=O)NCc1ccccc1OCC (centres unmarked) [Example 42] ?
0.139

Which IC50 value is on record for CCCC(Oc1ccc(C#N)c(C(F)(F)F)c1)C(=O)NCC (centres unmarked) [Example 5] ?
0.277

Which IC50 value is on record for CCNC(=O)C(CC(C)C)Oc1ccc(C#N)c(C(F)(F)F)c1 (centres unmarked) [Example 3] ?
0.247

Which IC50 value is on record for CC(C)CC(Oc1ccc(C#N)c(C(F)(F)F)c1)C(=O)NCc1ccc(O)c(O)c1 (centres unmarked) [Example 74] ?
0.139

Which IC50 value is on record for CCCC(Oc1ccc(C#N)c(C(F)(F)F)c1)C(=O)NCc1cccc(C)c1 (centres unmarked) [Example 43] ?
0.099

Which IC50 value is on record for CCCC(Oc1ccc(C#N)c(C(F)(F)F)c1)C(=O)N[C@H](C)c1ccc(O)cc1 (stereo in doubt) [Example 119] ?
0.086

Which IC50 value is on record for Cc1cccc(CCNC(=O)C(CC(C)C)Oc2ccc(C#N)c(C(F)(F)F)c2)c1 (centres unmarked) [Example 49] ?
0.075

Which IC50 value is on record for CCCC(Oc1ccc(C#N)c(C(F)(F)F)c1)C(=O)NCc1cccc(OC)c1 (centres unmarked) [Example 40] ?
0.241

Which IC50 value is on record for CCC[C@H](Oc1ccc(C#N)c(Cl)c1)C(=O)NCCc1c[nH]c2ccccc12 [Example 106] ?
0.047

====

Molecular target: human androgen receptor (hAR) (Homo sapiens, UniProt P10275)
Construct: made in house; host or cells: baculovirus/Sf9 insect cells (crude extract)
Assay: Competitive binding analysis on baculovirus/Sf9 generated hAR extracts with 3H-DHT tracer
Details: hAR extract, 1 nM 3H-DHT, one hour at 4° C; mean of multiple tests; read-out: AR Binding IC50
Measured property: IC50 (nM)
# unit: nM | format: bare number

Solved entries (count: 6):
{"Compound": "Cc1ncccc1CNC(=O)C(CC(C)C)Oc1ccc(C#N)c(C(F)(F)F)c1 (centres unmarked) [Example 76]", "IC50 / nM": 479}
{"Compound": "CCCC(Oc1ccc(C#N)c(C(F)(F)F)c1)C(=O)NC(C)c1ccc(O)cc1 (centres unmarked) [Example 6]", "IC50 / nM": 455}
{"Compound": "CC(C)CC(Oc1ccc(C#N)c(C(F)(F)F)c1)C(=O)NCCc1c[nH]c2ccccc12 (centres unmarked) [Example 59]", "IC50 / nM": 48}
{"Compound": "CCCCC(Oc1ccc(C#N)c(C(F)(F)F)c1)C(=O)NCc1ccccc1 (centres unmarked) [Example 91]", "IC50 / nM": 70}
{"Compound": "CCCOCCNC(=O)C(CC(C)C)Oc1ccc(C#N)c(C(F)(F)F)c1 (centres unmarked) [Example 81]", "IC50 / nM": 142}
{"Compound": "COc1ccc(CCNC(=O)C(CC(C)C)Oc2ccc(C#N)c(C(F)(F)F)c2)cc1 (centres unmarked) [Example 9]", "IC50 / nM": 163}

Which IC50 value is on record for CC(C)CC(Oc1ccc(C#N)c(C(F)(F)F)c1)C(=O)NCC1CC1 (centres unmarked) [Example 7] ?
107

Which IC50 value is on record for CC(C)CC(Oc1ccc(C#N)c(C(F)(F)F)c1)C(=O)NCC(c1ccccc1)N(C)C (centres unmarked) [Example 68] ?
223

Which IC50 value is on record for CC(C)CC(Oc1ccc(C#N)c(C(F)(F)F)c1)C(=O)NCc1ccc2c(c1)CCO2 (centres unmarked) [Example 25] ?
67

Which IC50 value is on record for CCCOCCCNC(=O)C(CC(C)C)Oc1ccc(C#N)c(C(F)(F)F)c1 (centres unmarked) [Example 85] ?
117

Which IC50 value is on record for CC(C)CC(Oc1ccc(C#N)c(C(F)(F)F)c1)C(=O)NCCc1ccc(O)cc1 (centres unmarked) [Example 61] ?
86

Which IC50 value is on record for CCC[C@H](Oc1ccc(C#N)c(C(F)(F)F)c1)C(=O)NCCc1ccc(O)cc1 [Example 109] ?
251

Which IC50 value is on record for CCC[C@H](Oc1ccc(C#N)c(C(F)(F)F)c1)C(=O)NCc1cccc(C)c1 [Example 107] ?
93

Which IC50 value is on record for CCC(COC)NC(=O)C(CC(C)C)Oc1ccc(C#N)c(C(F)(F)F)c1 (centres unmarked) [Example 82] ?
218

Which IC50 value is on record for CC(C)CC(Oc1ccc(C#N)c(C(F)(F)F)c1)C(=O)NC1CCc2ccccc21 (centres unmarked) [Example 54] ?
70

Which IC50 value is on record for COc1ccc(CCNC(=O)C(CC(C)C)Oc2ccc(C#N)c(C(F)(F)F)c2)cc1 (centres unmarked) [Example 34] ?
68

Which IC50 value is on record for Cc1ccc(NC(=O)C(CC(C)C)Oc2ccc(C#N)c(C(F)(F)F)c2)cc1O (centres unmarked) [Example 78] ?
121
